type: physicochemical; details: stored at room temperature (21-25° C.), day 18
Recorded Stability in Powder Concentrate (content by LCMSMS) by entry
measurement_type: Stability in Powder Concentrate (content by LCMSMS) (mg/g powder)

compound | quantitative_readout
CCCCCc1cc(O)c2c(c1)OC(C)(C)[C@@H]1CCC(C)=C[C@@H]21 [D9 THC, delta-9-tetrahydrocannabinol, reference compound] | 2.55
CCCc1cc(O)c2c(c1)OC(C)(C)[C@@H]1CCC(C)=C[C@@H]21 [THCV, delta-9-tetrahydrocannabivarin] | 0.690
CCCCCc1cc(O)c2c(c1)OC(C)(C)c1ccc(C)cc1-2 | 0.470
Cc1c(C)c2c(c(C)c1OC(=O)CCC(=O)O)CC[C@@](C)(CCC[C@H](C)CCC[C@H](C)CCCC(C)C)O2 [α-Tocopheryl succinate] | 1.77
CC(=O)Oc1c(C)c(C)c2c(c1C)CCC(C)(CCC[C@H](C)CCC[C@H](C)CCCC(C)C)O2 (stereo partly drawn) [α-Tocopheryl acetate] | 2.10
C=C(C)[C@@H]1CCC(C)=C[C@H]1c1c(O)cc(CCC)cc1O | 0.051
